From: patent US12600709B2

target: human somatostatin receptor subtype 2 (Homo sapiens, UniProt P30874); construct: expressed in transfected cells; assay: cAMP assay for SST2R (inhibition of cAMP in CHO-K1 cells); assay type: cell-based; conditions: Table B; inhibition of cAMP via human SST2 receptor; read-out: SST2 potency
Sequence (P30874 whole entry): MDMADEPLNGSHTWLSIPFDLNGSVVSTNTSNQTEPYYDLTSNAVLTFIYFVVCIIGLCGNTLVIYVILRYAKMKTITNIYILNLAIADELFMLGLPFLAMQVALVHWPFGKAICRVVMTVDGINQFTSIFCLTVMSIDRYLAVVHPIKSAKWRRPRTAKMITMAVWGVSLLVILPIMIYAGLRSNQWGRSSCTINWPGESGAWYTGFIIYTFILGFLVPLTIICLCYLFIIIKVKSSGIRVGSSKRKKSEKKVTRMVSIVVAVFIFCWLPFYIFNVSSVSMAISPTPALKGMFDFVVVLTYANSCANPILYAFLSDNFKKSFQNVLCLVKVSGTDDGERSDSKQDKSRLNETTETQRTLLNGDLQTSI
pEC50: −log10 of the molar value.
Catalogue of compounds with associated pEC50

Some entries whose results are on file:
Compound: Cc1ncc(C(=O)N[C@@H](C)C2CC2)c(N2CC[C@H](N)C2)c1-c1cc(F)cc(Cl)c1 [1-272]
pEC50: 6.00 to 7.00
--
Compound: C[C@]1(N)CCN(c2c(C(=O)NC3CCCCC3)cnc(C(F)(F)F)c2-c2cc(F)cc(F)c2)C1 [1-210]
pEC50: 7.00 to 8.00
--
Compound: COc1cc(-c2c(C(F)(F)F)ncc(C(=O)N[C@@H](C)C3CC3)c2N2CC[C@](C)(N)C2)ccn1 [1-208]
pEC50: 6.00 to 7.00
--
Compound: Cc1ncc(-c2c(C#N)ncc(C(=O)N[C@@H](C)C3CC3)c2N2CC[C@](C)(N)C2)s1 [1-128]
pEC50: 6.00 to 7.00
--
Compound: N#Cc1ncc(C(=O)NC23CC(C2)C3)c(N2C[C@@H](N)[C@H](F)C2)c1-c1cc(F)cc(F)c1 [1-101]
pEC50: < 6.00
--
Compound: N#Cc1ncc(C(=O)NC23CC(C2)C3)c(N2CC[C@H](N)C2)c1-c1cc(F)cc(F)c1 [1-64]
pEC50: < 6.00
--
Compound: C[C@]1(N)CCN(c2c(C(=O)NC3CCC3)cnc(C#N)c2-c2cc(F)cc(F)c2)C1 [1-87]
pEC50: 6.00 to 7.00
--
Compound: C[C@H](NC(=O)c1cnc(C#N)c(-c2cc(F)cc(F)c2)c1N1CC[C@H](N)C1)C1CC1 [1-69]
pEC50: 6.00 to 7.00

stdin: Which measured pEC50 belongs to C[C@H](NC(=O)c1cnc(C#N)c(-c2cc(F)cc(F)c2)c1N1CC[C@](C)(N)C1)C(F)(F)F [1-192] , tested on human somatostatin receptor subtype 2 (Homo sapiens, UniProt P30874)?
stdout: 7.00 to 8.00

stdin: Ok, now C[C@]1(N)CCN(c2c(C(=O)NC3CCCCC3)cnc(C#N)c2-c2cc(F)cc(F)c2)C1 [1-93]
stdout: 7.00 to 8.00

stdin: Ok, now C[C@]1(N)CCN(c2c(C(=O)NCC3CC3)cnc(C#N)c2-c2cc(F)cc(F)c2)C1 [1-86]
stdout: 6.00 to 7.00

stdin: Ok, now Cc1cccc(NC(=O)c2cncc(-c3ccnc(C#N)c3)c2N2CC[C@](C)(N)C2)c1 [1-5]
stdout: 6.00 to 7.00

stdin: Ok, now Cc1ncc(C(=O)N[C@@H](C)C(F)(F)F)c(N2CC[C@](C)(N)C2)c1-c1ccc(F)c(F)c1 [1-279]
stdout: 6.00 to 7.00
